What pKd was measured for each of the following?
target: RSV prefusion F (preF), DS-Cav1 (Respiratory Syncytial Virus, UniProt P03420 26-513); assay: BLI, IgG on anti-human IgG sensor, 100 nM antigen, 1:1 fit
Give bare numbers, as −log10 of the molar value.

Illustrative cases are given below, each with its answer.
ADI-41537 (antibody, V domains shown) VH: EVQLLESGGGLVQPGGSLRLSCAASEFTFSRYPMSWVRQAPGKGLEWVSGISVSGDSTYYADSVKGRLTISRDNSKNTLYLQMNSLRAEDTAVYYCAIDHYDTSGYYGMDVWGQGTTVTVSS VL: DIRLTQSPLSLPVTPGEPASISCRSSRSLLRSNGYNYLDWYLQKPGQSPQLLIYLGSNRASGVPDRFSGSGSGTDFTLKISRVEAEDVGVYYCMQALQSSYTFGQGTKLEIK :: 8.59
ADI-41503 (antibody, V domains shown) VH: EVQLLESGGGLVQPGGSLRLSCAASGFTFSDFPLSWVRQAPGKGLVWVSAISSSGGDTYYADSVKGRFTISRDSSKNALYLQMNSLRAEDTAVYYCAKGQELLRPYYYGMDVWGQGTTVTVSS VL: QSALIQPASVSGSPGQSITISCTGTSSDVGGYNFVSWYQQHPGKAPKLMIFEVSNRPSGVSHRFSGSKSGNTASLTISGLQAEDEADYYCSSCTSRFTYVFGTGTKLTVL :: 8.50

Note: attention shifts to another entry.
Prompt line: Reported pKd, binder ADI-41475 (antibody, V domains shown) VH: QVQLQESGPGLVKPSQTLSLTCAISGDSVSSNSAAWNWIRQSPSRGLEWLGRTYYRSKWWTDYAVSVKSRITINPDTSKNQFSLQLNSVTPEDTAVYYCARDPDSGNYFHYYGMDVWGQGTTVTVSS VL: ETTLTQSPATLSLSPGERATLSCRASQSASSYLAWYQQKPGQAPRLLIYDASKRATGIPARFSGSGSGTDFSLTISSLEPEDFAVYYCQLRSKWPPYTFGQGTKVEIK : ____
Response line: 7.91
